# assay-summary: Percentage unbound in human plasma at 5 uM after 6 hrs by equilibrium dialysis method
# Assay type: ADME, cell-free
# measurement-context: 6 h, 5 µM
metric-name: Fu (%)

In [3]: df
Out[3]:
                                    compound  unit_abbreviation  result_number
 0                    CS(=O)(=O)NCCCc1ccccc1                  %          37.27
 1  O=C1NC(=O)C(Cc2ccccc2)S1 (stereo unspecified)                  %            3.4
 2                       O=P(O)(O)CCc1ccccc1                  %             31
 3                  Oc1c(F)ccc(Cc2ccccc2)c1F                  %           0.52
 4                        CC(=O)NOCCc1ccccc1                  %             64
 5                  S=c1[nH]c(CCc2ccccc2)no1                  %           0.65
 6             O=S(=O)([O-])CCc1ccccc1.[Na+]                  %           0.31
 7                       Oc1cc(Cc2ccccc2)on1                  %            0.1
 8                       O=[PH](O)CCc1ccccc1                  %           8.86
 9                  O=c1[nH]c(CCc2ccccc2)ns1                  %           1.17
10                    O=C1CCC(O)=C1Cc1ccccc1                  %           14.3
11  O=C1C=C(O)CC1Cc1ccccc1 (stereo unspecified)                  %           7.96
12                    c1ccc(CCc2nnn[nH]2)cc1                  %           1.12
13                 O=c1c(O)c(NCc2ccccc2)c1=O                  %           6.45
14                          O=C(O)CCc1ccccc1                  %            9.5
15                      NS(=O)(=O)CCc1ccccc1                  %          60.72
16  O=C1NC(=O)C(Cc2ccccc2)O1 (stereo unspecified)                  %             14
17                        CONC(=O)CCc1ccccc1                  %             68
18                  O=c1c(O)c(Cc2ccccc2)c1=O                  %           8.19
19                         O=C(CCc1ccccc1)NO                  %             29
20                  O=c1[nH]c(CCc2ccccc2)no1                  %            1.1
21                    CC(=O)NC(=O)NCc1ccccc1                  %             77
22                    O=C1CCC(Cc2ccccc2)=C1O                  %             16
23                CS(=O)(=O)NC(=O)NCc1ccccc1                  %             31
24                  Oc1c(F)cc(Cc2ccccc2)cc1F                  %           0.26
25                 O=S([O-])CCc1ccccc1.[Na+]                  %              5
26  [O-][S+](Cc1ccccc1)c1ccccc1O (stereo unspecified)                  %             12
27            CN(C)S(=O)(=O)NC(=O)CCc1ccccc1                  %            8.1
28               O=S(=O)(Cc1ccccc1)c1ccccc1O                  %           1.59
29                CS(=O)(=O)NC(=O)CCc1ccccc1                  %           12.8
30                      CC(=O)N(O)CCc1ccccc1                  %             37

====

# measurement-context: octanol/water, pH 7.4, 1 h
Rule: logD below 0.2 gives yes, anything at or above gives no.

>>> print(df.to_string())
                                    molecule  assigned_class
 0  O=C1CC(=O)C(Cc2ccccc2)N1 (centres undefined)             yes
 1               O=S(=O)(Cc1ccccc1)c1ccccc1O              no
 2  O=C1NC(=O)C(Cc2ccccc2)S1 (centres undefined)              no
 3                  Oc1c(F)ccc(Cc2ccccc2)c1F              no
 4                        CONC(=O)CCc1ccccc1              no
 5                    O=C1CCC(Cc2ccccc2)=C1O              no
 6                       Oc1ccccc1SCc1ccccc1              no
 7            CN(C)S(=O)(=O)NC(=O)CCc1ccccc1             yes
 8                  S=c1[nH]c(CCc2ccccc2)no1             yes
 9  O=C1CC(c2ccccc2)C=C1O (centres undefined)              no
10                  O=c1[nH]c(CCc2ccccc2)no1              no
11                       Oc1cc(Cc2ccccc2)on1              no
12                    c1ccc(CCc2nnn[nH]2)cc1             yes
13  O=C1C=C(O)CC1Cc1ccccc1 (centres undefined)             yes

====

# assay-summary: physchem
# measurement-context: aqueous phosphate buffer, pH 7.4
Catalogue of solubility kinetic at 24 h, 200 µM values
metric-name: solubility kinetic at 24 h, 200 µM (µM)

                                    compound                         metric_name  unit_abbreviation  inequality_sign  result_number
 0  O=C1CC(=O)C(Cc2ccccc2)N1 (centres undefined)  solubility kinetic at 24 h, 200 µM                 µM                ≥            200
 1               O=S(=O)(Cc1ccccc1)c1ccccc1O  solubility kinetic at 24 h, 200 µM                 µM                =            197
 2                  Oc1c(F)ccc(Cc2ccccc2)c1F  solubility kinetic at 24 h, 200 µM                 µM                =            149
 3                          O=C(O)CCc1ccccc1  solubility kinetic at 24 h, 200 µM                 µM                =            111
 4                       Oc1cc(Cc2ccccc2)on1  solubility kinetic at 24 h, 200 µM                 µM                ≥            200
 5                       O=P(O)(O)CCc1ccccc1  solubility kinetic at 24 h, 200 µM                 µM                =            152
 6                    c1ccc(CCc2nnn[nH]2)cc1  solubility kinetic at 24 h, 200 µM                 µM                ≥            200
 7  [O-][S+](Cc1ccccc1)c1ccccc1O (centres undefined)  solubility kinetic at 24 h, 200 µM                 µM                ≥            200
 8                      NS(=O)(=O)CCc1ccccc1  solubility kinetic at 24 h, 200 µM                 µM                ≥            200
 9  O=C1NC(=O)C(Cc2ccccc2)O1 (centres undefined)  solubility kinetic at 24 h, 200 µM                 µM                ≥            200
10                    O=C1CCC(Cc2ccccc2)=C1O  solubility kinetic at 24 h, 200 µM                 µM                =            195
11                  Oc1c(F)cc(Cc2ccccc2)cc1F  solubility kinetic at 24 h, 200 µM                 µM                =            109
12                  S=c1[nH]c(CCc2ccccc2)no1  solubility kinetic at 24 h, 200 µM                 µM                ≥            200
13                        CONC(=O)CCc1ccccc1  solubility kinetic at 24 h, 200 µM                 µM                ≥            200
14                 O=S([O-])CCc1ccccc1.[Na+]  solubility kinetic at 24 h, 200 µM                 µM                ≥            200
15                 O=c1c(O)c(NCc2ccccc2)c1=O  solubility kinetic at 24 h, 200 µM                 µM                ≥            200
16  O=C1CC(c2ccccc2)C=C1O (centres undefined)  solubility kinetic at 24 h, 200 µM                 µM                =            192
17  O=C1NC(=O)C(Cc2ccccc2)S1 (centres undefined)  solubility kinetic at 24 h, 200 µM                 µM                =            200
18                    CS(=O)(=O)NCCCc1ccccc1  solubility kinetic at 24 h, 200 µM                 µM                ≥            200
19                  O=c1c(O)c(Cc2ccccc2)c1=O  solubility kinetic at 24 h, 200 µM                 µM                =            166
20  CC1=C(O)CC(Cc2ccccc2)C1=O (centres undefined)  solubility kinetic at 24 h, 200 µM                 µM                >            200
21  O=C1C=C(O)CC1Cc1ccccc1 (centres undefined)  solubility kinetic at 24 h, 200 µM                 µM                =            195
22             O=S(=O)([O-])CCc1ccccc1.[Na+]  solubility kinetic at 24 h, 200 µM                 µM                ≥            200
23                         O=C(CCc1ccccc1)NO  solubility kinetic at 24 h, 200 µM                 µM                ≥            200
24                  O=c1[nH]c(CCc2ccccc2)ns1  solubility kinetic at 24 h, 200 µM                 µM                =            200
25                CS(=O)(=O)NC(=O)CCc1ccccc1  solubility kinetic at 24 h, 200 µM                 µM                =            200
26                CS(=O)(=O)NC(=O)NCc1ccccc1  solubility kinetic at 24 h, 200 µM                 µM                =            198
27                    O=C1CCC(O)=C1Cc1ccccc1  solubility kinetic at 24 h, 200 µM                 µM                =            199
28                      CC(=O)N(O)CCc1ccccc1  solubility kinetic at 24 h, 200 µM                 µM                ≥            200
29                       O=[PH](O)CCc1ccccc1  solubility kinetic at 24 h, 200 µM                 µM                =            128
30            CN(C)S(=O)(=O)NC(=O)CCc1ccccc1  solubility kinetic at 24 h, 200 µM                 µM                =            199
31                        CC(=O)NOCCc1ccccc1  solubility kinetic at 24 h, 200 µM                 µM                =            200
32                    CC(=O)NC(=O)NCc1ccccc1  solubility kinetic at 24 h, 200 µM                 µM                ≥            200
33                  O=c1[nH]c(CCc2ccccc2)no1  solubility kinetic at 24 h, 200 µM                 µM                ≥            200
